# Experimental Details: refractive index (Na D-line) (dimensionless); wn = mass fraction of the nth substance listed
# Test Conditions: 318.15 K; 101 kPa; Liquid; Standard Abbe refractometry; w1 = 0.1
Endpoint Name: refractive index

- Compound: "CC(O)CN(CC(C)O)CC(C)O (centres undefined) [triisopropanolamine] + O"
  refractive index: 1.34484
- Compound: "CC(O)CNCC(C)O (centres undefined) [N-(2-hydroxypropyl)-2-hydroxy-1-propanamine] + O"
  refractive index: 1.3445
- Compound: "CC(O)CN (centres undefined) [1-amino-2-propanol] + O"
  refractive index: 1.34259
- Compound: "OCCNCCO [diethanolamine] + O"
  refractive index: 1.3434

----------
# Experimental Details: wn = mass fraction of the nth substance listed
# Test Conditions: 323.15 K; 101 kPa; Liquid; Vibrating tube method; w1 = 0.15
Endpoint Name: mass density (kg/m3)

- Compound: "CC(O)CN(CC(C)O)CC(C)O (centres undefined) [triisopropanolamine] + O"
  Measured: 996.957
- Compound: "OCCNCCO [diethanolamine] + O"
  Measured: 1004.85
- Compound: "CC(O)CNCC(C)O (centres undefined) [N-(2-hydroxypropyl)-2-hydroxy-1-propanamine] + O"
  Measured: 996.497
- Compound: "CC(O)CN (centres undefined) [1-amino-2-propanol] + O"
  Measured: 989.197

----------
# Experimental Details: wn = mass fraction of the nth substance listed
# Test Conditions: 308.15 K; 101 kPa; Liquid; Vibrating tube method; w1 = 0.25
Endpoint Name: mass density (kg/m3)

- Compound: "CC(O)CN(CC(C)O)CC(C)O (centres undefined) [triisopropanolamine] + O"
  mass density / kg/m3: 1010.26
- Compound: "OCCNCCO [diethanolamine] + O"
  mass density / kg/m3: 1023.11
- Compound: "CC(O)CN (centres undefined) [1-amino-2-propanol] + O"
  mass density / kg/m3: 997.78
- Compound: "CC(O)CNCC(C)O (centres undefined) [N-(2-hydroxypropyl)-2-hydroxy-1-propanamine] + O"
  mass density / kg/m3: 1009.69

----------
# Experimental Details: wn = mass fraction of the nth substance listed
# Test Conditions: 318.15 K; 101 kPa; Liquid; Concentric cylinders viscometry; w1 = 0.15
Endpoint Name: viscosity (mPa·s)

- Compound: "CC(O)CN(CC(C)O)CC(C)O (centres undefined) [triisopropanolamine] + O"
  Unit String: "mPa·s"
  viscosity: 1.038
- Compound: "OCCNCCO [diethanolamine] + O"
  Unit String: "mPa·s"
  viscosity: 0.948
- Compound: "CC(O)CNCC(C)O (centres undefined) [N-(2-hydroxypropyl)-2-hydroxy-1-propanamine] + O"
  Unit String: "mPa·s"
  viscosity: 1.095
- Compound: "CC(O)CN (centres undefined) [1-amino-2-propanol] + O"
  Unit String: "mPa·s"
  viscosity: 0.9756

----------
# Experimental Details: refractive index (Na D-line) (dimensionless); wn = mass fraction of the nth substance listed
# Test Conditions: 313.15 K; 101 kPa; Liquid; Standard Abbe refractometry; w1 = 0.2
Endpoint Name: refractive index

- Molecule: "CC(O)CN (centres undefined) [1-amino-2-propanol] + O"
  refractive index: 1.35672
- Molecule: "CC(O)CNCC(C)O (centres undefined) [N-(2-hydroxypropyl)-2-hydroxy-1-propanamine] + O"
  refractive index: 1.35947
- Molecule: "CC(O)CN(CC(C)O)CC(C)O (centres undefined) [triisopropanolamine] + O"
  refractive index: 1.36039
- Molecule: "OCCNCCO [diethanolamine] + O"
  refractive index: 1.35939

----------
# Experimental Details: wn = mass fraction of the nth substance listed
# Test Conditions: 333.15 K; 101 kPa; Liquid; Vibrating tube method; w1 = 0.05
Endpoint Name: mass density (kg/m3)

- Molecule: "CC(O)CN (centres undefined) [1-amino-2-propanol] + O"
  Endpoint Name: "mass density"
  Measured: 984.143
- Molecule: "OCCNCCO [diethanolamine] + O"
  Endpoint Name: "mass density"
  Measured: 989.2
- Molecule: "CC(O)CNCC(C)O (centres undefined) [N-(2-hydroxypropyl)-2-hydroxy-1-propanamine] + O"
  Endpoint Name: "mass density"
  Measured: 986.277
- Molecule: "CC(O)CN(CC(C)O)CC(C)O (centres undefined) [triisopropanolamine] + O"
  Endpoint Name: "mass density"
  Measured: 986.362

----------
# Experimental Details: wn = mass fraction of the nth substance listed
# Test Conditions: 333.15 K; 101 kPa; Liquid; Vibrating tube method; w1 = 0.25
Endpoint Name: mass density (kg/m3)

- Compound: "CC(O)CN(CC(C)O)CC(C)O (centres undefined) [triisopropanolamine] + O"
  Unit String: "kg/m3"
  mass density: 995.844
- Compound: "CC(O)CN (centres undefined) [1-amino-2-propanol] + O"
  Unit String: "kg/m3"
  mass density: 983.616
- Compound: "OCCNCCO [diethanolamine] + O"
  Unit String: "kg/m3"
  mass density: 1010.55
- Compound: "CC(O)CNCC(C)O (centres undefined) [N-(2-hydroxypropyl)-2-hydroxy-1-propanamine] + O"
  Unit String: "kg/m3"
  mass density: 995.91

----------
# Experimental Details: refractive index (Na D-line) (dimensionless); wn = mass fraction of the nth substance listed
# Test Conditions: 333.15 K; 101 kPa; Liquid; Standard Abbe refractometry; w1 = 0.2
Endpoint Name: refractive index

- Compound: "OCCNCCO [diethanolamine] + O"
  refractive index: 1.35582
- Compound: "CC(O)CN(CC(C)O)CC(C)O (centres undefined) [triisopropanolamine] + O"
  refractive index: 1.35587
- Compound: "CC(O)CNCC(C)O (centres undefined) [N-(2-hydroxypropyl)-2-hydroxy-1-propanamine] + O"
  refractive index: 1.35501
- Compound: "CC(O)CN (centres undefined) [1-amino-2-propanol] + O"
  refractive index: 1.35211

----------
# Experimental Details: refractive index (Na D-line) (dimensionless); wn = mass fraction of the nth substance listed
# Test Conditions: 318.15 K; 101 kPa; Liquid; Standard Abbe refractometry; w1 = 0.2
Endpoint Name: refractive index

- Compound: "CC(O)CN (centres undefined) [1-amino-2-propanol] + O"
  Measured: 1.35573
- Compound: "CC(O)CN(CC(C)O)CC(C)O (centres undefined) [triisopropanolamine] + O"
  Measured: 1.35933
- Compound: "OCCNCCO [diethanolamine] + O"
  Measured: 1.35862
- Compound: "CC(O)CNCC(C)O (centres undefined) [N-(2-hydroxypropyl)-2-hydroxy-1-propanamine] + O"
  Measured: 1.35838

----------
# Experimental Details: refractive index (Na D-line) (dimensionless); wn = mass fraction of the nth substance listed
# Test Conditions: 298.15 K; 101 kPa; Liquid; Standard Abbe refractometry; w1 = 0.1
Endpoint Name: refractive index

- Molecule: "CC(O)CNCC(C)O (centres undefined) [N-(2-hydroxypropyl)-2-hydroxy-1-propanamine] + O"
  Measured: 1.34766
- Molecule: "OCCNCCO [diethanolamine] + O"
  Measured: 1.34654
- Molecule: "CC(O)CN (centres undefined) [1-amino-2-propanol] + O"
  Measured: 1.34586
- Molecule: "CC(O)CN(CC(C)O)CC(C)O (centres undefined) [triisopropanolamine] + O"
  Measured: 1.34815

----------
# Experimental Details: refractive index (Na D-line) (dimensionless); wn = mass fraction of the nth substance listed
# Test Conditions: 323.15 K; 101 kPa; Liquid; Standard Abbe refractometry; w1 = 0.15
Endpoint Name: refractive index

- Compound: "CC(O)CNCC(C)O (centres undefined) [N-(2-hydroxypropyl)-2-hydroxy-1-propanamine] + O"
  Endpoint Name: "refractive index"
  Measured: 1.35044
- Compound: "CC(O)CN(CC(C)O)CC(C)O (centres undefined) [triisopropanolamine] + O"
  Endpoint Name: "refractive index"
  Measured: 1.35104
- Compound: "OCCNCCO [diethanolamine] + O"
  Endpoint Name: "refractive index"
  Measured: 1.35028
- Compound: "CC(O)CN (centres undefined) [1-amino-2-propanol] + O"
  Endpoint Name: "refractive index"
  Measured: 1.34799

----------
# Experimental Details: refractive index (Na D-line) (dimensionless); wn = mass fraction of the nth substance listed
# Test Conditions: 313.15 K; 101 kPa; Liquid; Standard Abbe refractometry; w1 = 0.25
Endpoint Name: refractive index

- Compound: "OCCNCCO [diethanolamine] + O"
  Endpoint Name: "refractive index"
  Measured: 1.36756
- Compound: "CC(O)CN (centres undefined) [1-amino-2-propanol] + O"
  Endpoint Name: "refractive index"
  Measured: 1.36347
- Compound: "CC(O)CNCC(C)O (centres undefined) [N-(2-hydroxypropyl)-2-hydroxy-1-propanamine] + O"
  Endpoint Name: "refractive index"
  Measured: 1.36641
- Compound: "CC(O)CN(CC(C)O)CC(C)O (centres undefined) [triisopropanolamine] + O"
  Endpoint Name: "refractive index"
  Measured: 1.36764
